# method_notes: Acumen qHTS Assay for Inhibitors of the mTORC1 Signaling Pathway in WT MEF Cells: Hit Validation; also: nearly all actives have a fitted effect of over 60% in size
# test_parameters: Acumen imaging; series mostly up to 37.3 µM
Records with an inconclusive call do not appear. Active and inactive are the calls of the source. Calls follow the shape of the dose curve; as a rule, active = well fitted inhibition curve with a large enough effect; inconclusive = small, poorly fitted or top-dose-only effect; inactive = no such curve, though single readings can be large or run the other way.
Classes used: y (active), n (inactive)

>  <molecule>
C#Cc1cccc(Nc2ncnc3cc(OCCOC)c(OCCOC)cc23)c1

>  <class>
n

$$$$
>  <molecule>
CCOC(=O)Cc1ccc(NC(=O)n2ncc3cc(Cl)ccc32)cc1

>  <class>
n

$$$$
>  <molecule>
CCN(CC)CCCNc1sc(S(=O)(=O)c2ccccc2)nc1S(=O)(=O)c1ccc(Cl)cc1

>  <class>
y

$$$$
>  <molecule>
CN(C)c1ccc(NC(=O)Cn2cc(S(=O)(=O)Cc3ccccc3Cl)c3ccccc32)cc1

>  <class>
y

$$$$
>  <molecule>
COc1cc(C(=O)n2nc(C)c(Sc3ccc(Cl)cc3)c2C)cc(OC)c1OC

>  <class>
n

$$$$
>  <molecule>
CCc1ccc(NC(=O)C2CCCN(S(=O)(=O)c3c(C)noc3/C=C/N(C)C)C2)cc1 (configuration not stated)

>  <class>
y

$$$$
>  <molecule>
Cc1ccc(S(=O)(=O)c2nc(-c3ccco3)oc2SC(C)c2ccccc2)cc1 (configuration not stated)

>  <class>
n

$$$$
>  <molecule>
O=C(Cn1c(=O)c2cccn2c2ccccc21)NCc1ccccc1F

>  <class>
n

$$$$
>  <molecule>
CCCC1=Nc2cc(C(=O)NC3CCCC3)ccc2Sc2ccc(C)cc21

>  <class>
y

$$$$
>  <molecule>
COc1ccc(S(=O)(=O)N(Cc2nc(-c3cccc(C)c3)no2)C2CCCCC2)cc1

>  <class>
n

$$$$
>  <molecule>
CCCCCn1c(=N)n(CC(O)COc2cccc(C)c2)c2ccccc21 (configuration not stated)

>  <class>
y

$$$$
>  <molecule>
O=C(Nc1ccc2nc(SCC(=O)N3CCCc4ccccc43)sc2c1)c1ccccc1F

>  <class>
n

$$$$

###

# method_notes: Acumen qHTS Assay for Inhibitors of the mTORC1 Signaling Pathway in WT MEF Cells: Hit Validation; also: nearly all actives have a fitted effect of over 60% in size
# test_parameters: Acumen imaging; series mostly up to 37.3 µM
Results filed as inconclusive are left out. Calls of active or inactive are those of the source. Calls follow the shape of the dose curve; as a rule, active = well fitted inhibition curve with a large enough effect; inconclusive = small, poorly fitted or top-dose-only effect; inactive = no such curve, though single readings can be large or run the other way.
Classes used: y for active, n for inactive

>  <compound>
O=C(CCn1cnc2onc(-c3ccc(F)cc3)c2c1=O)Nc1ccc(F)c(Cl)c1

>  <class>
n

$$$$
>  <compound>
CC1=C(C(=O)OC2CCCC2)C(c2ccccc2Cl)CC(=O)N1 (configuration not stated)

>  <class>
n

$$$$
>  <compound>
CCCCN(CC)CCNC(=O)C1CCN(c2nnc(C)c3c(C)n(-c4ccc(C)cc4)nc23)CC1

>  <class>
n

$$$$
>  <compound>
Cc1cccc(N2CCN(c3ncnc4c3nc3n4CCCCC3)CC2C)c1 (configuration not stated)

>  <class>
y

$$$$
>  <compound>
Cc1ccc(NC(=O)CSc2nc(-c3ccco3)cc(C(F)(F)F)n2)cc1C

>  <class>
n

$$$$
>  <compound>
CCCCOC(=O)c1ccc(NC(=O)c2ccc3c(c2)CCN3S(=O)(=O)c2ccccc2)cc1

>  <class>
n

$$$$
>  <compound>
CCOC(=O)C1CCN(C(=O)CSc2c3c(nc4ccc(Cl)cc24)CCCC3)CC1

>  <class>
n

$$$$
>  <compound>
COc1cc(CN(C(=O)COc2ccc(C)c(C)c2)c2ccccn2)cc(OC)c1OC

>  <class>
n

$$$$
>  <compound>
CCCc1oc2ccc(NS(=O)(=O)c3ccc(OC)cc3)cc2c1C(=O)OCC

>  <class>
y

$$$$
>  <compound>
Cc1nn(CC(=O)N2CCN(c3ccccc3F)CC2)c(=O)c2cccn12

>  <class>
n

$$$$
>  <compound>
CCCCS(=O)(=O)c1oc(-c2ccc(F)cc2)nc1S(=O)(=O)c1ccc(C)cc1

>  <class>
y

$$$$
>  <compound>
Cn1nnnc1SCCCNCc1cc(Cl)ccc1OCc1ccc(F)cc1

>  <class>
n

$$$$
>  <compound>
Cc1ccc(C)c(N2CCN(CCCNC(=O)c3nnc(Cc4ccc(F)cc4Cl)o3)CC2)c1

>  <class>
n

$$$$
>  <compound>
CCOc1ccc(NC(=O)c2sc3nc4c(cc3c2N)CCCCCC4)cc1

>  <class>
n

$$$$
>  <compound>
Oc1ccc(NCc2ccccc2OCc2ccc(Cl)cc2)cc1

>  <class>
n

$$$$
>  <compound>
CC(C)N(C(=O)Cn1cc(S(=O)(=O)Cc2ccc(Cl)cc2)c2ccccc21)C(C)C

>  <class>
n

$$$$
>  <compound>
CCC(Sc1nncn2c1cc1oc(C)cc12)C(=O)Nc1ccc(F)cc1 (configuration not stated)

>  <class>
n

$$$$

Hello, the source for this data is PubChem BioAssay AID651789, in case you need it.
